Values were extracted from patent US20160016951A1.

Task for the reader: assign each of the following molecules its reported IC50.
Target: CDK8 (CDK8/CycC) (Homo sapiens, UniProt P49336)
Construct: purchased Invitrogen PV4402
Sequence (P49336 whole entry): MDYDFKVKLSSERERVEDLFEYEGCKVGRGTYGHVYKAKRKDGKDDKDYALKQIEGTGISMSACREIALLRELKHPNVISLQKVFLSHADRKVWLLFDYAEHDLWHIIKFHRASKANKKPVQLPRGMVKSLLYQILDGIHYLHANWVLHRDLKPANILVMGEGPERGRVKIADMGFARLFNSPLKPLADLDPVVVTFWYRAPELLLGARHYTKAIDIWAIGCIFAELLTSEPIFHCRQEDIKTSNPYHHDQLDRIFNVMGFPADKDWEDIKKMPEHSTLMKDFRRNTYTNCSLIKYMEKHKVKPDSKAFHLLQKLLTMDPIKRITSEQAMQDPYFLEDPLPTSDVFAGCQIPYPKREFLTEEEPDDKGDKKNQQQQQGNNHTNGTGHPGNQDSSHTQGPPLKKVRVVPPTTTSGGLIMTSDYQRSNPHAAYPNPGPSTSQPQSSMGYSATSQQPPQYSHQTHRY
Sequence (P24863 whole entry partner): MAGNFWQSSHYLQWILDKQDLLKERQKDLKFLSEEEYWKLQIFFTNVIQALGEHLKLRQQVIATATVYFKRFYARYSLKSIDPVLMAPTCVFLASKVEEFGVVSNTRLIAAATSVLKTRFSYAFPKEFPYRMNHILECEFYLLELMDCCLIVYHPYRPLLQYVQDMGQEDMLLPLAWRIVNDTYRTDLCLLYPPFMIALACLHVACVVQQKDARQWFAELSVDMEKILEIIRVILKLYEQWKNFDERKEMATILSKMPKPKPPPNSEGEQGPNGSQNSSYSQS
Assay: FRET based Lanthascreen binding competition assay
Settings: 5 nM CDK8/CycC, 10 nM Alexa647-Tracer, 1% DMSO, 60 min at RT; read-out: IC50 CDK8 binding

// fetch IC50; item: CN(CCO)C(=O)c1ccc2cncc(-c3ccc4c(c3)CS(=O)(=O)N4)c2n1 ; system: CDK8 (CDK8/CycC) (Homo sapiens, UniProt P49336) 10 to 100 nM

// fetch IC50; item: CC1CCC(=O)N1c1ccc2cncc(-c3ccc(-c4cnn(C)c4)cc3)c2c1 (centres unmarked) ; system: CDK8 (CDK8/CycC) (Homo sapiens, UniProt P49336) 10 to 100 nM

// fetch IC50; item: COC1(C)CN(C(=O)c2ccc3cncc(-c4ccc(-c5cnn(C)c5)cc4)c3c2)C1 ; system: CDK8 (CDK8/CycC) (Homo sapiens, UniProt P49336) 10 to 100 nM

// fetch IC50; item: CN1C(=O)Cc2ccc(-c3cnc(N)c4ccc(C(=O)N5CC(F)(F)C5)cc34)cc21 ; system: CDK8 (CDK8/CycC) (Homo sapiens, UniProt P49336) 10 to 100 nM

// fetch IC50; item: CC(C)(O)Cn1cc(-c2ccc(-c3cncc4ccc(NS(C)(=O)=O)cc34)cc2)cn1 ; system: CDK8 (CDK8/CycC) (Homo sapiens, UniProt P49336) < 10 nM

// fetch IC50; item: Cn1cc(-c2ccc(-c3c(Cl)ncc4ccc(C(=N)N)nc34)cc2)cn1 ; system: CDK8 (CDK8/CycC) (Homo sapiens, UniProt P49336) 101 to 500 nM

// fetch IC50; item: Cc1cc2cncc(-c3ccc4c(c3)CS(=O)(=O)N4C)c2nc1C(=O)N1CCC(F)(F)C1 ; system: CDK8 (CDK8/CycC) (Homo sapiens, UniProt P49336) 10 to 100 nM

// fetch IC50; item: CN1C(=O)Cc2cc(-c3cncc4ccc(C(=O)N5CC(F)(F)C5)cc34)ccc21 ; system: CDK8 (CDK8/CycC) (Homo sapiens, UniProt P49336) 10 to 100 nM

// fetch IC50; item: Cn1cc(-c2ccc(-c3cncc4ccc(C(=O)N5CCNCC5)cc34)cc2)cn1 ; system: CDK8 (CDK8/CycC) (Homo sapiens, UniProt P49336) < 10 nM

// fetch IC50; item: O=C(c1ccc2cnccc2n1)N1CCC[C@H]1c1ccc(Br)cc1 ; system: CDK8 (CDK8/CycC) (Homo sapiens, UniProt P49336) 10 to 100 nM

// fetch IC50; item: Cn1cc(-c2ccc(-c3cncc4ccc(N5CCC(=O)C5)cc34)cc2)cn1 ; system: CDK8 (CDK8/CycC) (Homo sapiens, UniProt P49336) 10 to 100 nM

// fetch IC50; item: O=C(c1ccc2cncc(Br)c2n1)N1CCC[C@H]1c1ccc(C(F)(F)F)cc1 ; system: CDK8 (CDK8/CycC) (Homo sapiens, UniProt P49336) 10 to 100 nM

// fetch IC50; item: CN1c2ccc(-c3cncc4ccc(C(=O)NC5(C)CC5)nc34)cc2CS1(=O)=O ; system: CDK8 (CDK8/CycC) (Homo sapiens, UniProt P49336) < 10 nM

// fetch IC50; item: Cc1ccc2cncc(-c3ccc4c(c3)CS(=O)(=O)N4C)c2n1 ; system: CDK8 (CDK8/CycC) (Homo sapiens, UniProt P49336) 101 to 500 nM

// fetch IC50; item: COC1CN(C(=O)c2ccc3cncc(-c4ccc(-c5cnn(C(C)C)c5)cc4)c3n2)C1 ; system: CDK8 (CDK8/CycC) (Homo sapiens, UniProt P49336) < 10 nM

// fetch IC50; item: CNC(=O)c1ccc2cncc(-c3ccc4c(c3)N(C)C(=O)C4)c2n1 ; system: CDK8 (CDK8/CycC) (Homo sapiens, UniProt P49336) < 10 nM

// fetch IC50; item: Nc1ncc(-c2ccc3c(c2)NC(=O)C3)c2cc(C(=O)N3CC(F)(F)C3)ccc12 ; system: CDK8 (CDK8/CycC) (Homo sapiens, UniProt P49336) 10 to 100 nM
